- run description: Half life in rat at 2 mg/kg, iv or 30 mg/kg, po
- Assay type: ADME, organism-based
- condition context: in vivo
observation type: half-life (min)
Numeric answer only, unit min assumed.

Summary for this compound, `CSC(=S)N1CC(C)(C)CS/C1=N\c1ccccc1C(C)C` : half-life is 36

====

Consider the following molecules; for each one, report its pIC50.
- target or test system: Cannabinoid receptor 1 (Homo sapiens, UniProt P21554)
- Sequence (P21554 whole entry): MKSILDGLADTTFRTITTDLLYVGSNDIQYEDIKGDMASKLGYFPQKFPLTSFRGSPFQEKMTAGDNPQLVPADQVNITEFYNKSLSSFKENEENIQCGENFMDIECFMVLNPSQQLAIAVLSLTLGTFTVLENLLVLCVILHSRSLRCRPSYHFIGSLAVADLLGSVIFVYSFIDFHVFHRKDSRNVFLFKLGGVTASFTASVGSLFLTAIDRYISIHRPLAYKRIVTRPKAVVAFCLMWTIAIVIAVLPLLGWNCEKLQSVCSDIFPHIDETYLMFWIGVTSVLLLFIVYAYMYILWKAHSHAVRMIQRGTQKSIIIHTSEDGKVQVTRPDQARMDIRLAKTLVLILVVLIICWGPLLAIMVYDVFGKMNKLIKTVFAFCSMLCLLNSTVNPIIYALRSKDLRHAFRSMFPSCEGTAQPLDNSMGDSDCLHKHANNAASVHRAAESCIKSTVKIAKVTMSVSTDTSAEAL
- run description: Agonist activity at human CB1 in CHO cells assessed as inhibition of cAMP production
pIC50: −log10 of the molar value.

Reported pIC50 (Cannabinoid receptor 1 (Homo sapiens, UniProt P21554)) for entry `CSC(=S)N1CC(C)(C)CS/C1=N\c1ccccc1C(C)C` is < 5.30

Reported pIC50 (Cannabinoid receptor 1 (Homo sapiens, UniProt P21554)) for entry `CCOC(=O)N1CC(C)(C)CS/C1=N\c1ccccc1C(C)C` is < 5.30
